Recorded pEC50 values for a group of molecules are listed next.
- systemName: PKR K410E (Homo sapiens, UniProt P30613, K410E)
- Sequence (P30613 whole entry K410E): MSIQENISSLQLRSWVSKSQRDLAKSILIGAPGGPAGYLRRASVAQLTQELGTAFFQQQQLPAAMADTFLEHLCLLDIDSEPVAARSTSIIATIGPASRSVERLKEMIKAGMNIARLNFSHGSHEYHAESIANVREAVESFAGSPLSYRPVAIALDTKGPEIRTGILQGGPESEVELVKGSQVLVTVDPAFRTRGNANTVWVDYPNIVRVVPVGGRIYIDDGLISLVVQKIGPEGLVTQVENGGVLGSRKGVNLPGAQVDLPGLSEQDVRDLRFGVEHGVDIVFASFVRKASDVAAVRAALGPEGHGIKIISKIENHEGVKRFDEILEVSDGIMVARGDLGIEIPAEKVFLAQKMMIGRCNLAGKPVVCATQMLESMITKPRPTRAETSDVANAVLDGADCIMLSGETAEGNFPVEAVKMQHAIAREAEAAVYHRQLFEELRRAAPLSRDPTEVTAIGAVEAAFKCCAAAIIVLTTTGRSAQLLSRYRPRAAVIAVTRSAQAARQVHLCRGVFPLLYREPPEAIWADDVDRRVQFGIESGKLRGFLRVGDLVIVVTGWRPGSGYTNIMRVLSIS
- experimentDescription: PKR mutant assay (K410E), AC50, LDH/NADH-coupled, absorbance at 340 nm
- reportedConditions: Table 4; AC50, enzyme assay
pEC50: −log10 of the molar value.
assayEndpoint: pEC50

molecule: Cn1cc(Cc2nc3c(s2)c2cnn(Cc4cccc(C(N)=O)c4)c(=O)c2n3C)cn1 [Compound 389]
assayEndpoint: pEC50
result: < 6.10

molecule: Cn1c2nc(Cc3ccccn3)sc2c2cnn(CC3CCOCC3)c(=O)c21 [Compound 403]
assayEndpoint: pEC50
result: < 6.10

molecule: Cn1ncc2nc(Cn3ncc4c5sc(Cc6cc[nH]n6)nc5n(C)c4c3=O)ccc21 [Compound 288]
assayEndpoint: pEC50
result: > 6.52

molecule: Cn1c2nc(Cc3cc(Cl)[nH]n3)sc2c2cnn(Cc3cccc4[nH]ncc34)c(=O)c21 [Compound 233]
assayEndpoint: pEC50
result: > 6.52

molecule: Cn1c2nc(Cc3cc[nH]n3)sc2c2cnn(CCc3cscn3)c(=O)c21 [Compound 401]
assayEndpoint: pEC50
result: > 6.52

molecule: Cn1c2nc(Cc3c[nH]nn3)sc2c2cnn(Cc3ccc(OC(F)(F)F)cc3)c(=O)c21 [Compound 295]
assayEndpoint: pEC50
result: > 6.52

molecule: Cn1c2nc(Cc3cc[nH]n3)sc2c2cnn(Cc3cccc(O)c3)c(=O)c21 [Compound 369]
assayEndpoint: pEC50
result: > 6.52

Source of measurements: patent US11957680B2
